Attribute Measured: melting point

Some compounds with known melting point results, for comparison:
response.value for "N#Cc1c(Cl)c(Cl)nc(Cl)c1Cl" (field: melting point) = 139 to 142 °C

# compound "CCOC(=O)c1c(SC)nc2ccc(Cl)cc2c1Cl" ; its melting point = 134 to 137 °C

melting point reading for CC1CN(c2ccccc2)NC1=O (stereo not given) : 133 to 136 °C

Record "CCOC(=O)C(C#N)=C(N)c1cc2cccc(OC)c2oc1=O" . Reported melting point: 251 to 252 °C

Continuing:
Just so you know, measured melting point for "CCOC(=O)C(=O)c1ccc(Br)s1" came out at 70 to 71 °C

###

Lab note: anything with melting point at or over 90 °C counts as true (1); the rest go in false (0).

Hi team, for CCC(C(N)=O)c1ccccc1 (stereo not given) , is the recorded melting point at or above 90 °C?
false (0)

Further cases:
Answer whether melting point of "Cc1ccc(-c2csc(/C(C#N)=N\Nc3ccc(Cl)cc3)n2)cc1" is greater than or equal to 90 °C.
true (1)

Record "[O-][P+](O)(O)CCN(CP(c1ccccc1)c1ccccc1)CP(c1ccccc1)c1ccccc1" ; criterion: melting point no lower than 90 °C. Met?
true (1)

Does melting point meet or surpass 90 °C for "O=C(Nc1ccccc1)c1nn(-c2ccccc2)c(-c2ccc([N+](=O)[O-])cc2)c1S(=O)(=O)c1ccccc1" ?
true (1)

Does the compound "Cc1ccc(C2(c3ccc(C)o3)C(=O)Nc3ccccc32)o1" have recorded melting point that is 90 °C or more?
true (1)

Given the entry "Cc1nc(-c2ccncc2)sc1C(=O)O" , answer whether its melting point meets or surpasses 90 °C.
true (1)

Does the reported melting point for "O=C(O)c1cc2cc([N+](=O)[O-])ccc2oc1=O" fall at or above the 90 °C mark?
true (1)

Check this compound for melting point at or above 90 °C: "O=C(O)C=Cc1cc(F)cc(F)c1"
true (1)

Quick check, melting point >= 90 °C? "CCOc1ccc2[nH]c(S)nc2c1"
true (1)

Would you say "CCCCCCCCCCCCCCCCCCCCCCCC(=O)O" shows melting point at minimum 90 °C?
false (0)

###

Attribute Measured: melting point

Previously resolved entries follow.
Form: compound = "Cc1noc(-c2ccccc2)c1I" ; melting point = 66 to 68 °C

// melting point value for CC12CCC3(CC1CCC1C2CCC2(C)C1CCC2(C)O)OCCO3 (stereo unspecified) : 192 to 193 °C

Lookup result for "Sc1nnc(S)s1" ; measured melting point: 161 to 165 °C

Summary for this compound, "COC(=O)c1cc(C)on1" : melting point is 92 °C

"Cc1cc(C)c(Cl)c(O)c1Cl" has a reported melting point of 87.5 °C

Let's switch to this compound now.
melting point reported for this compound "COc1ccc(C=Nn2c(C)cc(C)c(C#N)c2=O)cc1" : 249 to 250 °C

###

I'd be grateful if you could share measured melting point for these entries.

Record "Nc1nnc(C2CCC2)[nH]1" . Reported melting point: 153 to 155 °C

Lab book: melting point of "COc1ccc(C=CC(=O)c2ccc3ccccc3c2)cc1" noted as 92 to 95 °C

melting point recorded for this compound, "S=C=NC12CC3CC(CC(C3)C1)C2" , is 166 to 168 °C

Record summary for "CC(C)(C)OC(=O)c1cccc(N)c1" : reported melting point = 81 to 83 °C

# ---- query compound ----
Data point: "O=C(O)c1ccc(-c2ccco2)s1" ; melting point = 187 to 188 °C

###

Attribute Measured: melting point

What the record says about "COc1cc(F)c(C#N)cc1F" : melting point is 91 °C

Batch request: melting point per item, same order as input.
1. O=CC(C=O)c1ccc(Cl)cc1
2. O=C(Cl)c1ccc2c(c1)OCO2

1: 137 to 143 °C; 2: 80 to 81 °C

###

For each record, write down the corresponding melting point.

Examples from the recorded data:
// melting point lookup, molecule = OC1OCCCC1(Cl)Cl (centres undefined) , result: 87 to 90 °C

Briefly, melting point measured for "Nc1nc(=O)[nH]cc1Br" : 240 to 243 °C

# molecule "CC(=CC=Cc1ccccc1)C(=O)OC(=O)C(C)=CC=Cc1ccccc1" ; its melting point = 112 to 113 °C

Record "Cc1nc2sc3c(c2c(=O)n1NC(=O)c1ccccc1Cl)CCCC3" , field melting point: 244 to 246 °C

molecule "N[C@H](c1ccccc1)[C@@H](O)c1ccccc1" , melting point observed: 142 to 144 °C

Dear colleague, could you please provide melting point for the molecules listed below?
1. Nc1ncccc1O
2. CSc1nc(N)nc(-c2cc(Cl)cc(Cl)c2)n1
3. OCCCc1nc2ccccc2[nH]1
4. Cc1cc(I)cc(C)c1O

["170 to 176 °C", "214 to 216 °C", "164 to 166 °C", "99 to 102 °C"]

###

Task for the reader: assign each of the following molecules its reported melting point.

Consider the following illustrative entries.
Reported melting point ( "O=C(Cl)c1csc(-c2cccs2)n1" ) = 93 to 94 °C

melting point recorded for this molecule, "COC(=O)c1ccc2c(I)cn(C(=O)OC(C)(C)C)c2c1" , is 154 to 155 °C

In plain terms, "CCOC(=O)c1[nH]c2ccccc2c1C" has a documented melting point of 130 to 133 °C

Alright, here's another molecule for you.
For "COC(=O)C1=C(C(=O)OC)C(=O)C(=C2C=Cc3ccccc3N2)C1=O" the molecule record lists melting point as 362 to 363 °C

###

Attribute Measured: melting point (°C)
Give bare numbers, in °C.

Recorded melting point (compound "Cc1c2ccccc2c(C)c2c1ccc1ccccc12" ): 122

Now examine the next entry.
Query "O=C(Cn1c(=O)sc2ccc(Cl)cc21)N1CCN(CCO)CC1" yields melting point of 160

###

Assignment: determine reported melting point for the given compounds.

Would you please look over these solved cases?
Record summary for "Cc1oc(C)c(S(=O)(=O)NCc2cccs2)c1C(=O)O" : reported melting point = 167 to 169 °C

melting point reading for "CCOC(=O)c1c(C=O)c(C)n(C2CC2)c1C" : 75 to 80 °C

Reported melting point of "Nc1n[nH]c(N)c1Cc1ccc2c(c1)OCO2" : 169 to 171 °C

Just so you know, measured melting point for "CC(=O)Nc1c(Br)cc(Br)cc1C(=O)c1ccccc1" came out at 156 °C

Please fill in: melting point reported for CCC(C)C(N)P(=O)(O)O (configuration not stated) = 274 °C

Input CC12CCC3C(C(=O)CC4CC(O)CCC43C)C1CCC2=O (configuration not stated) . Output melting point: 199 to 200 °C

Memo: "CC[C@H]1CC[C@H](C(=O)O)CC1" , reported melting point: 50 °C

Field melting point (entry "O=C(/C(=N\Nc1cccc(O)c1)S(=O)(=O)c1ccccc1)c1ccc(Cl)cc1" ) reads 125 °C

Per the records, this compound ( "O=C(OCc1ccc([N+](=O)[O-])cc1[N+](=O)[O-])c1ccccc1" ) has melting point equal to 139 °C

Value of measured melting point for the entry "Cn1c(/C(C#N)=C/c2c(Cl)cccc2Cl)nc2ccccc21" : 185 °C

Report melting point for each item below.
1. CC(=O)C1CCC2C3CCC4=CC(=O)CCC4(C)C3CCC12C (configuration not stated)
2. O=C(O)c1cc(-c2ccc(Cl)cc2)oc1C(F)(F)F
3. NC(CS(=O)(=O)c1ccc(Cl)cc1)=NO
4. FC(F)(F)c1ccc(-c2nnc(S)o2)cc1

128 to 132 °C
192 to 193 °C
202 to 205 °C
155 to 156 °C

###

Assignment: determine reported melting point for the given compounds.
Numbers only, in °C.

In the examples that follow, each entry is paired with its recorded melting point.
melting point in this record for "Oc1ncnc2[nH]cnc12" : 250

Lab note: measured melting point of "N#C/C(=N\Nc1ccc(S(=O)(=O)O)cc1)c1nc2ccccc2s1" was 193

The reported melting point of the compound CC(C)C(=O)OCC(C)(C)C(O)C(C)C (stereo unspecified) was -50

compound "CCOC(=O)c1cc2ccccc2o1" , melting point observed: 30.5

For every item in the list below, what is its measured melting point?
1. CCCCCCCCCCCCC(C)O (stereo unspecified)
2. O=C(O)Cc1cccc(F)c1F
3. Brc1ccc2cc[nH]c2c1
4. CCN(CC)CCNC(=O)c1cc(Cl)c(N)cc1OC
5. Cc1ccc([N+](=O)[O-])cc1C(=O)O
6. O=S(=O)(Cl)c1c(Cl)cc(C(F)(F)F)cc1Cl

1. 34
2. 118
3. 92
4. 146
5. 179
6. 48

###

Use Yes when the recorded melting point is no lower than 90 °C; use No when it is lower.

Sample answers from the record:
Is melting point at least 90 °C? Consider "CCN(CC)C(=O)C(Cl)(Cl)Cl"
No

Does "COC1CC1" have a reported melting point of at least 90 °C?
No

Does the molecule "O=C1CCCCCC1=O" have recorded melting point that is 90 °C or more?
No

More entries:
Kindly determine if melting point recorded for O=[N+]([O-])c1ccc(OC2OC(CO)C(O)C(O)C2O)cc1 (stereo not given) is above or exactly 90 °C.
Yes

For this molecule, is measured melting point 90 °C or higher? "CCOc1cccc(F)c1"
No

Reported melting point at or above 90 °C? "CC(C)(O)C(Cl)(Cl)Cl"
Yes

Please indicate if the recorded melting point for "COC(=O)CC[C@@H](C)[C@H]1CC[C@H]2[C@@H]3C(=O)C[C@@H]4CCCC[C@]4(C)[C@H]3CC[C@]12C" meets or exceeds 90 °C.
Yes

# check: melting point of "Cc1cc(O)c(C(C)(C)C)cc1Sc1cc(C(C)(C)C)c(O)cc1C" is greater than or equal to 90 °C
Yes

melting point >= 90 °C for "COc1cc(O)c(C(=O)c2ccccc2)c(O)c1" ?
Yes

Could you please find out whether CC12CCCC1C1CCC(CC(=O)O)C(C)(CC(=O)O)C1CC2 (stereo not given) has melting point that meets 90 °C or exceeds it?
Yes

Quick check: does "CCN(Cc1ccc(Cl)nc1)C(=C[N+](=O)[O-])NC" have melting point greater than or equal to 90 °C?
No

For this molecule, is measured melting point 90 °C or higher? "O=C(O)c1c(Cl)ccc(Cl)c1Cl"
Yes

Does "CSc1ncc(Cl)c(C(=O)O)n1" have a reported melting point of at least 90 °C?
Yes

Is it the case that "COc1ccccc1CC(=O)O" has melting point reaching or exceeding 90 °C?
Yes

Please check the record "N=c1sc(C(=O)c2cccs2)nn1-c1ccccc1" and state if its melting point is at or above 90 °C.
Yes
